system: barnyardgrass; test: Test C flooded paddy test; format: in vivo, Echinochloa crus-galli; settings: 62 g ai/ha, scale 0 to 100 (0 no effect, 100 complete control)
Each item that follows carries a reported Barnyardgrass plant response rating.
value type: Barnyardgrass plant response rating

# compound, value type, test result
measured = [
    ("CCN1N=C(C(C)(C)C)CC1C(=O)Nc1cc(C(=O)N2CCCCC2)ccc1F (racemic) [Compound 331]", "Barnyardgrass plant response rating", 0),
    ("C=CCn1nc(C(C)(C)C)cc1C(=O)Nc1cccc(C(C)=NO)c1 [Compound 117]", "Barnyardgrass plant response rating", 10),
    ("CCNC(=O)c1cccc(NC(=O)c2nn(C(C)(C)CC)nc2CC)c1 [Compound 376]", "Barnyardgrass plant response rating", 45),
    ("C#CCN(C)C(=O)c1ccnc(NC(=O)c2cc(C(C)(C)C)nn2CC)c1 [Compound 160]", "Barnyardgrass plant response rating", 20),
    ("CCOC(=O)c1cccc(NC(=O)c2cc(C(C)(C)C)nn2CCF)c1 [Compound 79]", "Barnyardgrass plant response rating", 10),
    ("CCc1nn(C(C)(C)CC)nc1C(=O)Nc1cccc(C(=O)N2CC=CC2)c1 [Compound 369]", "Barnyardgrass plant response rating", 10),
    ("CCNC(=O)c1cccc(NC(=O)c2nn(C(C)C)nc2C)c1 [Compound 405]", "Barnyardgrass plant response rating", 0),
    ("C#CCNC(=O)c1ccc(F)c(NC(=O)c2cc(C3(C)CC3)nn2CC)c1 [Compound 302]", "Barnyardgrass plant response rating", 0),
    ("CCNC(=S)c1ccc(F)c(NC(=O)c2cc(C(C)(C)C)nn2CC)c1 [Compound 349]", "Barnyardgrass plant response rating", 45),
]
